- MEASURED ON: Progesterone receptor (Homo sapiens)
- Sequence (P06401 whole entry): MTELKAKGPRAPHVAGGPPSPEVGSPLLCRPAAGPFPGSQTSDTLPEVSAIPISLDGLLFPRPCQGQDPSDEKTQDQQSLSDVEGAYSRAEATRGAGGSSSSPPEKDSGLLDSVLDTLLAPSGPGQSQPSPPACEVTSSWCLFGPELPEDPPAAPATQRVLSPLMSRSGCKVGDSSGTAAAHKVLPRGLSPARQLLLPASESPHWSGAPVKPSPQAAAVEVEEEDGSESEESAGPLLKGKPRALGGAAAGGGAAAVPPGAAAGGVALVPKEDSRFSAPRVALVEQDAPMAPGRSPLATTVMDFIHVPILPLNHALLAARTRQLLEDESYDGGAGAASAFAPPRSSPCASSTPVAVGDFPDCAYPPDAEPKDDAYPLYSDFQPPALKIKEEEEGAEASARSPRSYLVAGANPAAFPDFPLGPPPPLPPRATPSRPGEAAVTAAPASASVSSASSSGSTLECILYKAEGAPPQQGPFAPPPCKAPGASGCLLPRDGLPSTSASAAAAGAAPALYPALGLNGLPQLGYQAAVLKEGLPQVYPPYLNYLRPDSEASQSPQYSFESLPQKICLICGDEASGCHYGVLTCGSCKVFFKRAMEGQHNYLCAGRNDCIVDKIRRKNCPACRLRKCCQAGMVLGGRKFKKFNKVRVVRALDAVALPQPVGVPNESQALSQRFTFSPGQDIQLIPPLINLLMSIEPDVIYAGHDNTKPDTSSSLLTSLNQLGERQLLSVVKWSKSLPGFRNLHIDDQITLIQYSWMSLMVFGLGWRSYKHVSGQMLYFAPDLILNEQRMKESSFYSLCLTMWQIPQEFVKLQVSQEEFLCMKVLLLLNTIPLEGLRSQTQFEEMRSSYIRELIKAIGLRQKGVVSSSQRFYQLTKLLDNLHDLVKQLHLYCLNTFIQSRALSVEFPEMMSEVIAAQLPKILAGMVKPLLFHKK
// compounds with Ki on Progesterone receptor (Homo sapiens), multi-source literature

{"COMPOUND": "COc1cccc2c1-c1ccc3c(c1C(CCN(C)C)O2)C(C)=CC(C)(C)N3 (centres undefined)", "MEASURED ON": "Progesterone receptor (Homo sapiens)", "Ki": "> 5 µM"}
{"COMPOUND": "C[C@H]1c2c(ccc3c2[C@H](c2ccc(Cl)cc2)Oc2ccccc2-3)NC(C)(C)[C@@H]1O", "MEASURED ON": "Progesterone receptor (Homo sapiens)", "Ki": "> 0.5 µM"}
{"COMPOUND": "CCCC1Oc2cccc(OC)c2-c2ccc3c(c21)C(C)=CC(C)(C)N3 (centres undefined)", "MEASURED ON": "Progesterone receptor (Homo sapiens)", "Ki": "> 5 µM"}

Now, please, on to the next compound.
# lookup: Ki of COc1ccc2c(c1)OC(c1ccccc1)c1c-2ccc2c1C(C)=CC(C)(C)N2 (centres undefined) > 5 µM

---

This section presents pKi values reported for Progesterone receptor (Homo sapiens) in the literature.
Note on pKi: it is the negative log10 of concentration, concentration in mol/L.

{"MOLECULE": "CC1=CC(C)(C)Nc2ccc(-c3csc(C=O)c3)cc21", "NUMERIC RESULT": 7.43}
{"MOLECULE": "CC(=O)c1ccc2c(c1)Cc1cc3c(cc1-2)C(C)=CC(C)(C)N3", "NUMERIC RESULT": 6.75}
{"MOLECULE": "CN(C)c1ccc([C@@H]2CN(S(=O)(=O)c3ccc(Cl)cc3)N=C2c2ccc(Cl)c(Cl)c2)cc1", "NUMERIC RESULT": 7.00}
{"MOLECULE": "CC(C)(C(=O)NC(N)=O)[C@@H]1c2ccc(-c3ccc(C(=O)N4CCCC4)nc3)nc2Oc2c(F)cccc21", "NUMERIC RESULT": 5.87}
{"MOLECULE": "O=S(=O)(c1cccc(Cl)c1)N1CCCCC(c2ccc(Cl)cc2)=N1", "NUMERIC RESULT": 6.20}

// query pKi value for entry C/C(=C1/c2ccccc2COc2ccccc21)c1cccc(NS(C)(=O)=O)c1 8.21

Which pKi value is on record for C#C[C@]1(O)CC[C@H]2[C@@H]3CCC4=CC(=O)CCC4=C3[C@@H](c3ccc(N(C)C(=O)CNC(=O)O[C@@H]4C[C@@H]5CC(O)CC[C@]5(C)[C@H]5C[C@H](O)[C@]6(C)[C@@H]([C@H](C)CCC(=O)O)CC[C@H]6[C@H]45)cc3)C[C@@]21C (some centres undefined) ? 8.36

# pKi lookup, item S=c1[nH]c2ccc(-c3cccc(Cl)c3)cc2n1Cc1ccccc1 6.82
